molecular target: recombinant Tdp1 (Homo sapiens); assay: Gel-based Tdp1 catalytic activity inhibition assay (5'-32P-labeled N14Y DNA substrate, denaturing PAGE); assay type: biochemical; details: 0.2 nmol/L recombinant Tdp1, 1 nmol/L N14Y substrate, 15 min, room temperature; read-out: unable to inhibit Tdp1 / inactive at concentrations up to
Sequence (Q9NUW8 whole entry): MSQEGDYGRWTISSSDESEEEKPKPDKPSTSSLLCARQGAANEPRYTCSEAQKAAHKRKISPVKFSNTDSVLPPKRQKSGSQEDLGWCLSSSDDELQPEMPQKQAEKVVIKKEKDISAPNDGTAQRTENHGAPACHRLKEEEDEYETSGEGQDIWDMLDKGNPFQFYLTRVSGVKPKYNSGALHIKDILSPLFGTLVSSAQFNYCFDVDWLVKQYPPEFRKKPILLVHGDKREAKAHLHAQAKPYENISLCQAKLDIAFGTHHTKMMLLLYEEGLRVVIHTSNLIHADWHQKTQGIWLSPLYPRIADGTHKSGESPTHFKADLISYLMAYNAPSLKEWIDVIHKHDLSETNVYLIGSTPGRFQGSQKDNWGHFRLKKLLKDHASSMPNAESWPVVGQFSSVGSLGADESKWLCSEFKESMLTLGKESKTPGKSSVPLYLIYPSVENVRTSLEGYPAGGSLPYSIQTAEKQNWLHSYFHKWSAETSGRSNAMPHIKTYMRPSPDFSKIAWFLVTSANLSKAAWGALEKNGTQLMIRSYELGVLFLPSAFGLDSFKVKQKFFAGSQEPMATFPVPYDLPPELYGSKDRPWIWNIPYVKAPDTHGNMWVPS

{"columns": ["COMPOUND", "SUBJECT_OF_TEST", "IC50"],
 "data": [
  ["CCn1cc(C(=O)O)c(=O)c2cc(F)c(N3CCNCC3)cc21", "recombinant Tdp1 (Homo sapiens)", "> 333 µM"],
  ["Cc1cc(C)nc(NS(=O)(=O)c2ccc(N)cc2)n1", "recombinant Tdp1 (Homo sapiens)", "> 333 µM"],
  ["COc1c(N2CCNC(C)C2)c(F)cc2c(=O)c(C(=O)O)cn(C3CC3)c12 (stereo not drawn)", "recombinant Tdp1 (Homo sapiens)", "> 333 µM"]
]}
